- system under test: Sigma non-opioid intracellular receptor 1 (Cavia porcellus, UniProt Q60492)
- Sequence (Q60492 whole entry): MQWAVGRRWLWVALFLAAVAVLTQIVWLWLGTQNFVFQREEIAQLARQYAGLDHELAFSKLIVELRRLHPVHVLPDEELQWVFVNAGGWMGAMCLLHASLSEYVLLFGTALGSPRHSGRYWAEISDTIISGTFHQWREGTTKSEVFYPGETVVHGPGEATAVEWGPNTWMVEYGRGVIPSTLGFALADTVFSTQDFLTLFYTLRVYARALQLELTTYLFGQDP
- test protocol: Displacement of [3H](+)-pentazocine from sigma 1 receptor in guinea pig brain membrane
experimental endpoint: pKi
// returns pKi (minus log10 of molar concentration), number only

[in] Given the entry O=C(CCCc1ccccc1)OC(CCN1CCN(CCCN(c2ccc(F)cc2)c2ccc(F)cc2)CC1)c1ccccc1 (stereo not given) , report its measured pKi.
[out] 6.61

[in] CCCC(=O)O[C@@H](Cc1ccccc1)CN1CCN(CCCN(c2ccc(F)cc2)c2ccc(F)cc2)CC1 , same question.
[out] 6.53

[in] O[C@H](Cc1ccccc1)CN1CCN(CCCN(c2ccc(F)cc2)c2ccc(F)cc2)CC1 , same question.
[out] 7.48

[in] CC(=O)OC(CCN1CCN(CCCN(c2ccc(F)cc2)c2ccc(F)cc2)CC1)c1ccccc1 (stereo not given) , same question.
[out] 7.25

[in] O=C(CCc1ccccc1)OC(CCN1CCN(CCCN(c2ccc(F)cc2)c2ccc(F)cc2)CC1)c1ccccc1 (stereo not given) , same question.
[out] 6.63

[in] Fc1ccc(C(OCCN2CCN(CCCc3ccccc3)CC2)c2ccc(F)cc2)cc1 , same question.
[out] 7.29

[in] O=C(Cc1ccccc1)O[C@@H](Cc1ccccc1)CN1CCN(CCCN(c2ccc(F)cc2)c2ccc(F)cc2)CC1 , same question.
[out] 7.06

[in] O[C@@H](Cc1ccccc1)CN1CCN(CCCN(c2ccc(F)cc2)c2ccc(F)cc2)CC1 , same question.
[out] 7.55

[in] O=C(Cc1ccccc1)OC(CCN1CCN(CCCN(c2ccc(F)cc2)c2ccc(F)cc2)CC1)c1ccccc1 (stereo not given) , same question.
[out] 6.87

[in] C=CC(=O)OC(CCN1CCN(CCCN(c2ccc(F)cc2)c2ccc(F)cc2)CC1)c1ccccc1 (stereo not given) , same question.
[out] 7.06

[in] CCC(=O)O[C@@H](Cc1ccccc1)CN1CCN(CCCN(c2ccc(F)cc2)c2ccc(F)cc2)CC1 , same question.
[out] 7.09

[in] CC(C)C(=O)OC(CCN1CCN(CCCN(c2ccc(F)cc2)c2ccc(F)cc2)CC1)c1ccccc1 (stereo not given) , same question.
[out] 7.05

[in] C=CC(=O)O[C@@H](Cc1ccccc1)CN1CCN(CCCN(c2ccc(F)cc2)c2ccc(F)cc2)CC1 , same question.
[out] 7.34

[in] CCC(=O)OC(CCN1CCN(CCCN(c2ccc(F)cc2)c2ccc(F)cc2)CC1)c1ccccc1 (stereo not given) , same question.
[out] 7.12

[in] CC(=O)O[C@@H](Cc1ccccc1)CN1CCN(CCCN(c2ccc(F)cc2)c2ccc(F)cc2)CC1 , same question.
[out] 7.12

---

Measurement record for Sodium-dependent serotonin transporter (Rattus norvegicus, UniProt P31652); quantity recorded: pKi.
// returns pKi (minus log10 of molar concentration), number only

[in] Given the entry CCC(=O)O[C@@H](Cc1ccccc1)CN1CCN(CCCN(c2ccc(F)cc2)c2ccc(F)cc2)CC1 , report its measured pKi.
[out] 5.98

[in] O=C(Cc1ccccc1)O[C@@H](Cc1ccccc1)CN1CCN(CCCN(c2ccc(F)cc2)c2ccc(F)cc2)CC1 , same question.
[out] 5.71

[in] CCCC(=O)O[C@@H](Cc1ccccc1)CN1CCN(CCCN(c2ccc(F)cc2)c2ccc(F)cc2)CC1 , same question.
[out] 5.77

[in] O[C@H](Cc1ccccc1)CN1CCN(CCCN(c2ccc(F)cc2)c2ccc(F)cc2)CC1 , same question.
[out] 6.28

---

Measurement record for Sodium-dependent dopamine transporter (Rattus norvegicus); quantity recorded: pKi.
// returns pKi (minus log10 of molar concentration), number only

[in] Given the entry O[C@H](Cc1ccccc1)CN1CCN(CCCN(c2ccc(F)cc2)c2ccc(F)cc2)CC1 , report its measured pKi.
[out] 8.27

[in] CCCN(CCC)CCc1ccc(OC)c(OCCc2ccccc2)c1 , same question.
[out] 5.44

[in] OC(CCN1CCN(CCCN(c2ccc(F)cc2)c2ccc(F)cc2)CC1)c1ccccc1 (racemic) , same question.
[out] 8.46

[in] C=CC(=O)OC(CCN1CCN(CCCN(c2ccc(F)cc2)c2ccc(F)cc2)CC1)c1ccccc1 (configuration not stated) , same question.
[out] 8.17

[in] CC(=O)O[C@@H](Cc1ccccc1)CN1CCN(CCCN(c2ccc(F)cc2)c2ccc(F)cc2)CC1 , same question.
[out] 7.66

[in] O=C(CCc1ccccc1)OC(CCN1CCN(CCCN(c2ccc(F)cc2)c2ccc(F)cc2)CC1)c1ccccc1 (configuration not stated) , same question.
[out] 7.44

[in] O[C@@H](Cc1ccccc1)CN1CCN(CCCN(c2ccc(F)cc2)c2ccc(F)cc2)CC1 , same question.
[out] 8.76

[in] O=C(Cc1ccccc1)OC(CCN1CCN(CCCN(c2ccc(F)cc2)c2ccc(F)cc2)CC1)c1ccccc1 (configuration not stated) , same question.
[out] 7.83

[in] CCC(=O)OC(CCN1CCN(CCCN(c2ccc(F)cc2)c2ccc(F)cc2)CC1)c1ccccc1 (configuration not stated) , same question.
[out] 8.25

[in] CCC(=O)O[C@@H](Cc1ccccc1)CN1CCN(CCCN(c2ccc(F)cc2)c2ccc(F)cc2)CC1 , same question.
[out] 7.82

[in] C=CC(=O)O[C@@H](Cc1ccccc1)CN1CCN(CCCN(c2ccc(F)cc2)c2ccc(F)cc2)CC1 , same question.
[out] 8.49

[in] CC(=O)OC(CCN1CCN(CCCN(c2ccc(F)cc2)c2ccc(F)cc2)CC1)c1ccccc1 (configuration not stated) , same question.
[out] 8.37

[in] CCCC(=O)O[C@@H](Cc1ccccc1)CN1CCN(CCCN(c2ccc(F)cc2)c2ccc(F)cc2)CC1 , same question.
[out] 7.47

[in] CC(C)C(=O)OC(CCN1CCN(CCCN(c2ccc(F)cc2)c2ccc(F)cc2)CC1)c1ccccc1 (configuration not stated) , same question.
[out] 8.03

[in] O=C(CCCc1ccccc1)OC(CCN1CCN(CCCN(c2ccc(F)cc2)c2ccc(F)cc2)CC1)c1ccccc1 (configuration not stated) , same question.
[out] 7.29

[in] O=C(Cc1ccccc1)O[C@@H](Cc1ccccc1)CN1CCN(CCCN(c2ccc(F)cc2)c2ccc(F)cc2)CC1 , same question.
[out] 8.16

[in] C[C@@H]1CN(CCCn2c3ccccc3c3ccccc32)C[C@H](C)N1 [RIMCAZOLE] , same question.
[out] 7.01

---

Measurement record for Sodium-dependent serotonin transporter (Rattus norvegicus); quantity recorded: pKi.
// returns pKi (minus log10 of molar concentration), number only

[in] Given the entry C=CC(=O)O[C@@H](Cc1ccccc1)CN1CCN(CCCN(c2ccc(F)cc2)c2ccc(F)cc2)CC1 , report its measured pKi.
[out] 6.18

[in] CC(C)C(=O)OC(CCN1CCN(CCCN(c2ccc(F)cc2)c2ccc(F)cc2)CC1)c1ccccc1 (stereo unspecified) , same question.
[out] 6.27

[in] C=CC(=O)OC(CCN1CCN(CCCN(c2ccc(F)cc2)c2ccc(F)cc2)CC1)c1ccccc1 (stereo unspecified) , same question.
[out] 6.50

[in] O[C@@H](Cc1ccccc1)CN1CCN(CCCN(c2ccc(F)cc2)c2ccc(F)cc2)CC1 , same question.
[out] 6.11

[in] CC(=O)OC(CCN1CCN(CCCN(c2ccc(F)cc2)c2ccc(F)cc2)CC1)c1ccccc1 (stereo unspecified) , same question.
[out] 6.69

[in] O=C(Cc1ccccc1)OC(CCN1CCN(CCCN(c2ccc(F)cc2)c2ccc(F)cc2)CC1)c1ccccc1 (stereo unspecified) , same question.
[out] 5.91

[in] O=C(CCc1ccccc1)OC(CCN1CCN(CCCN(c2ccc(F)cc2)c2ccc(F)cc2)CC1)c1ccccc1 (stereo unspecified) , same question.
[out] 5.89

[in] CCC(=O)OC(CCN1CCN(CCCN(c2ccc(F)cc2)c2ccc(F)cc2)CC1)c1ccccc1 (stereo unspecified) , same question.
[out] 6.56

[in] CC(=O)O[C@@H](Cc1ccccc1)CN1CCN(CCCN(c2ccc(F)cc2)c2ccc(F)cc2)CC1 , same question.
[out] 6.08

[in] O=C(CCCc1ccccc1)OC(CCN1CCN(CCCN(c2ccc(F)cc2)c2ccc(F)cc2)CC1)c1ccccc1 (stereo unspecified) , same question.
[out] 5.66
